TESTED SYSTEM: T1, human CD3 (human, UniProt P07766 23-207)
T1 construct: whole, on cells; also called CD3 on human T-cells
T1 sequence (P07766 23-207): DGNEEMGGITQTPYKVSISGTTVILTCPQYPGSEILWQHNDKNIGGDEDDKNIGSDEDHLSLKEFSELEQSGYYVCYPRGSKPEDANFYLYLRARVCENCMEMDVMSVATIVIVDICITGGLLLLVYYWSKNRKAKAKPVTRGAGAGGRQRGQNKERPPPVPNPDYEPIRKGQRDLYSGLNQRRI
EXPERIMENTAL PROTOCOL: cell binding, human T-cells
PROPERTY LABEL: Kd (nM)
// units = nM; emit number, no label

INSERT INTO measurements (binder, reported) VALUES
  ('Fab1-HK129-LL157-BiFolate (Fab, V domains shown, pAF at LL157 (Kabat) conjugated to folate (oxime); pAF at HK129 (Kabat) conjugated to folate (oxime), From E. coli; carries two folates) VH: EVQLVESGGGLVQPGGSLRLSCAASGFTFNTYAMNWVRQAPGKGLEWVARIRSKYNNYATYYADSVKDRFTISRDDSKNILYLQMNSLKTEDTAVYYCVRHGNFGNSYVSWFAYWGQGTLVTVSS VL: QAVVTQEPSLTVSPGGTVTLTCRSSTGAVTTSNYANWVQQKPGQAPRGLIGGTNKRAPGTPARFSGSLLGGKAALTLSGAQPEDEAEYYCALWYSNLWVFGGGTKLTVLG', 0.669);

Below: the item to evaluate.
Using the record for Fab1-HK129-pAF (Fab, V domains shown, para-acetyl-phenylalanine (pAF) at HK129 (Kabat), From E. coli; carries no folate and no PEG; also called Fab1-HK129-pAF1; anti-CD3 Fab1-HK129-pAF control) VH: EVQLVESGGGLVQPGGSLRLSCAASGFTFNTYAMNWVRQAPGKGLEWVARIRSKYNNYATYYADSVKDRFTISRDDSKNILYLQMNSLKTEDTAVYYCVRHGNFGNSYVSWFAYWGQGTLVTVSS VL: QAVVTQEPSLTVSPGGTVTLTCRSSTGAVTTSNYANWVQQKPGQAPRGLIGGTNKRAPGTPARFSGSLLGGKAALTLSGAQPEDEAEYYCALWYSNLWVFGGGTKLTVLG , state its measured Kd.
1.59
